- System: cyno B7-H3
- Sequence (as listed by the source): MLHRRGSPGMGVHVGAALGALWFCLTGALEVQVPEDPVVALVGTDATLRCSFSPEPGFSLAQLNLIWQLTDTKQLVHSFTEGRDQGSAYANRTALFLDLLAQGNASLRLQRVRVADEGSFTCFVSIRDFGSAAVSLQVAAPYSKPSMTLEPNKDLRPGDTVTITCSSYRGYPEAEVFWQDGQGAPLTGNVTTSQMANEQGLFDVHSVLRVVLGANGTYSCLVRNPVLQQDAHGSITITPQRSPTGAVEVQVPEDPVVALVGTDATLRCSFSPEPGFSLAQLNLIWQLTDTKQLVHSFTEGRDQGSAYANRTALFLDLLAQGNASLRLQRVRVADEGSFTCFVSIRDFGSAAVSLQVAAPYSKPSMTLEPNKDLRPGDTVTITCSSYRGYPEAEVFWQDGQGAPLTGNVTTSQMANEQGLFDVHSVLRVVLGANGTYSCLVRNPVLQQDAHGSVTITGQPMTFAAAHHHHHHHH
- experimental.details: Biacore T200 SPR binding kinetics, mAb capture, soluble ECD of cyno B7-H3
- Design: species or system cynomolgus monkey
- reported.conditions: 1:1 binding model
test.readout: ka (1/Ms) cynoB7-H3 (M⁻¹ s⁻¹)
Dear colleague, please return just the value in M⁻¹ s⁻¹, with no unit written.

Prompt line: Item under review: Ab18: the murine monoclonal Ab18 (antibody, V domains shown) VH: QVQLQQSAAELARPGASVKMSCKASGYSFTSYTIHWVKQRPGQGLEWIGYINPNSRNTDYNQKFKDETTLTADRSSSTAYMQLISLTSEDSAVYYCARYSGSTPYWYFDVWGAGTTVTVSS VL: QIVLTQSPAILSASPGEKVTMTCRASSSVSYMNWYQQKPGSSPKPWIYATSNLASGVPARFSVSVSGTSHSLTISRVEAEDAATYYCQQWSSNPLTFGAGTKLELK . Reported ka (1/Ms) cynoB7-H3?
Response line: 240000
